Test: Plasma stability
Format: in vitro ADME
Details: pooled human plasma, 37 °C, 10 μM, 30 min, read-out: 30 min—Compound Remaining %
Experimental readout: remaining at 0.5 h, 10 µM (%)

{"Molecule": "CNC(=O)c1cc(Oc2ccc(NC(=O)Nc3cc(C(C)(C)C)on3)cc2)ccn1 [MA68, reference compound]", "Result units": "%", "Measured number": 94.2}
{"Molecule": "Cc1ncsc1-c1ccc([C@H](C)NC(=O)[C@@H]2C[C@@H](O)CN2C(=O)[C@@H](NC(=O)[C@H]2CC[C@H](C(=O)N3CCN(CCNC(=O)c4cc(Oc5ccc(NC(=O)Nc6cc(C(C)(C)C)on6)cc5)ccn4)CC3)CC2)C(C)(C)C)cc1", "Result units": "%", "Measured number": 93.3}
{"Molecule": "Cc1ncsc1-c1ccc([C@H](C)NC(=O)[C@@H]2C[C@@H](O)CN2C(=O)[C@@H](NC(=O)[C@H]2CC[C@H](C(=O)N3CCC(CCNC(=O)c4cc(Oc5ccc(NC(=O)Nc6cc(C(C)(C)C)on6)cc5)ccn4)CC3)CC2)C(C)(C)C)cc1", "Result units": "%", "Measured number": 89.5}
{"Molecule": "Cc1ncsc1-c1ccc([C@H](C)NC(=O)[C@@H]2C[C@@H](O)CN2C(=O)[C@@H](NC(=O)CCOCCOCCOCCNC(=O)c2cc(Oc3ccc(NC(=O)Nc4cc(C(C)(C)C)on4)cc3)ccn2)C(C)(C)C)cc1 [MA49, reference compound]", "Result units": "%", "Measured number": 96.1}
